Origin of values: paper PMC10216305

Assign tissue uptake at 24 h to each entry below.
Test: in vivo
Set-up: species or system mice
Details: C57, mouse, iv, 0.037 MBq, total radioactivity, Brain uptake
Positions of bridges follow the written chain, without caps; N, C: chain ends. Non-standard residues stand in square brackets, D forms with d. Residues, ends and D or L forms follow the SMILES beside them. *: point of attachment. NOTA = O=C(O)CN1CCN(CC(=O)O)CCN(CC(=O)*)CC1; Nle = CCCC[C@H](N)C(=O)O
Write down the numeric answer in %ID/g and omit the unit.

Qu. Value lookup for tissue uptake at 24 h; key = CCCC[C@H](NC(=O)COCCOCCNC(=O)CN1CCN(CC(=O)O)CCN(CC(=O)O)CC1)C(=O)N[C@H]1CC(=O)NCCCC[C@@H](C(N)=O)NC(=O)[C@H](Cc2c[nH]c3ccccc23)NC(=O)[C@H](CCCNC(=N)N)NC(=O)[C@@H](Cc2ccccc2)NC(=O)[C@H](Cc2c[nH]cn2)NC1=O [^67Cu-NOTA-PEG2Nle-CycMSHhex, metal not drawn]
Ans. 0.04

Qu. Would you kindly repeat that for CCCC[C@H](NC(=O)CNC(=O)CNC(=O)CN1CCN(CC(=O)O)CCN(CC(=O)O)CC1)C(=O)N[C@H]1CC(=O)NCCCC[C@@H](C(N)=O)NC(=O)[C@H](Cc2c[nH]c3ccccc23)NC(=O)[C@H](CCCNC(=N)N)NC(=O)[C@@H](Cc2ccccc2)NC(=O)[C@H](Cc2c[nH]cn2)NC1=O [^67Cu-NOTA-GGNle-CycMSHhex, ^67Cu-NOTA-GlyGlyNle-CycMSHhex, metal not drawn] ({NOTA}-GG[Nle]DH[dF]RWK-NH2; lactam 4-9) ?
Ans. 0.02
